Values compiled from patent US20190350940A1.

Assay Comment: physchem
Type: physicochemical
Condition Context: pH 4.5, aqueous buffer, Saturated solubility of the drug substance
Assay Metric: solubility

Prompt line: Data request, read-out solubility, for CC(=O)[O][Pt]([NH2])([NH2])([Cl])([Cl])[O]C(=O)NCCCCCN1C(=O)C=CC1=O
Response line: 16 to 17 mg/mL

---

Tested On: UniProtKB P08684
Sequence (P08684 whole entry): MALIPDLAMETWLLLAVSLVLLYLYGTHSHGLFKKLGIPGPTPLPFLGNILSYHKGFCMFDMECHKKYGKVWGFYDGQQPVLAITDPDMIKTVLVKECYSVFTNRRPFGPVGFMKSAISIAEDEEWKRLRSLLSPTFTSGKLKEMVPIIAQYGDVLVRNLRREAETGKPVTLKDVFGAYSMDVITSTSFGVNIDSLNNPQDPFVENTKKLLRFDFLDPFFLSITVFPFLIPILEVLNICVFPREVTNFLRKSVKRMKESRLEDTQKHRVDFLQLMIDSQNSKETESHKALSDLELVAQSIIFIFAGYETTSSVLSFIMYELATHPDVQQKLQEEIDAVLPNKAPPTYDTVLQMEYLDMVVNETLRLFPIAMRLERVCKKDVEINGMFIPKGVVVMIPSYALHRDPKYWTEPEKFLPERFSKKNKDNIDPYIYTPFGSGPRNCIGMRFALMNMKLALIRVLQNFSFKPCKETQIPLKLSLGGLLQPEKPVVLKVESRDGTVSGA
Assay Metric: pIC50
The value called pIC50 is obtained by taking minus log10 of the concentration in mol/L.

Prompt line: Look up pIC50: CC(=O)[O][Pt]([NH2])([NH2])([Cl])([Cl])[O]C(=O)NCCCCCN1C(=O)C=CC1=O
Response line: 5.71
